All values here come from patent US12263248B2.

experimentNotes: Particle size and polydispersity index of nanoparticle compositions (Zetasizer Nano ZS)
Assay type: physicochemical
settings: Table 1E; compositions for subcutaneous administration
measuredParameter: Size (nm)
I only need the number, in nm, no unit after it.

# chemSmiles, readoutUnits, Size (nm)
measured = [
    ("CCCCCCCCCOC(=O)CCCCCCCN(CCCO)CCCCCCCC(=O)OC(CCCCCCCC)CCCCCCCC", "nm", 80.7),
]

Q: Requested read-out: Size (nm). Entry: CCCC/C=C\CCC(CC/C=C\CCCC)OC(=O)CCCCCCCN(CCO)CCCCCC(=O)OCCCCCCCCCCC
Result: 80.0

Q: If you can, please state the reported Size (nm) value of CCCCCCCCCOC(=O)CCCCCCCN(CCCCCCCC(=O)OC(CCCCCCCC)CCCCCCCC)CCCNS(C)(=O)=O .
Result: 67.0

Q: Entry CCCCCCCCCOC(=O)CCCCCCCN(CCCCCCCC(=O)OC(CCCCCCCC)CCCCCCCC)CCCNC(=S)N(C)C : reported Size (nm) = ?
Result: 88.9

----------
experimentNotes: Particle size and polydispersity index of nanoparticle compositions (Zetasizer Nano ZS)
Format: physicochemical
settings: Table 1A
# Lookup of reported PDI keyed by entry
Give the figure by itself; no unit, no explanation.

Example molecules with recorded PDI:
# molecule, recordedNumber
rows = [
    ("CCCCCCCCCOC(=O)CCCCCCCN(CCCCCCCC(=O)OC(CCCCCCCC)CCCCCCCC)CCCNC(C)=O", 0.14),
    ("CCCCCCCCCOC(=O)CCCCCCCN(CCO)CCCCCCCC(=O)Oc1ccc(CCCCC)cc1", 0.24),
    ("CCCCCCCCC(CCCCCCCC)OC(=O)CCCCCCCN(C)CCCCCCCCCC(=O)OCCCCCCC", 0.110),
    ("CCCCCCCCCC(=O)OC(C)CCCCCCN(CCO)CCCCCCCOC(=O)C(CCCCCCCC)CCCCCCCC (stereo not drawn)", 0.14),
    ("CCCCCCCCC(CCCCCCCC)OC(=O)CCCCCCCN(CCO)CCCC(=O)OC(CCCCCC)CCCCCCCC (stereo not drawn)", 0.13),
    ("CCCCCCCCCOC(=O)CCCCCCCN(CCO)CCCCCCCC(=O)OC(CCCC)CCCC", 0.16),
]

Q: Param item = CCCCCCCCCOC(=O)CCCCCCCN(CCO)CCCCCCCC(=O)OC(CCCCCCCC)CCCCCCCC ; retrieve measured PDI.
Result: 018

Q: Reported PDI, molecule CCCCCC/C=C\COC(=O)CCCCCCCN(CCO)CCCCCCCC(=O)OC(CCCCCCCC)CCCCCCCC : ____
Result: 0.13

Q: Requested field: PDI. Item: CCCCCCCCC(CCCCCCCC)OC(=O)CCCCCCCN(CCO)CCCCCCCC(=O)OC(CCCCCCCC)CCCCCCCC
Result: 0.11

Q: Quick one: PDI for CCCCCCCCC(CCCCCCCC)OC(=O)CCCCCCCN(CCO)CCCCCCCCC1CC1CCCCCCCC (stereo not drawn) ?
Result: 0.10

Q: Fill in the blank: the reported PDI of CCCCCCCCC(C)OC(=O)CCCCCCCN(CCO)CCCCCCCC(=O)N(CCCCCCCC)CCCCCCCC (stereo not drawn) is ____.
Result: 0.13

----------
# Total flux, 0.001 mpk Dose listing for each entry below
System: luciferase (Luc) mRNA
experimentNotes: Luc expression (total flux) after intramuscular administration
Format: in vivo, mice
settings: 6 hours after intramuscular administration, 0.001 mpk, Luc mRNA and H10 mRNA
Provide the reading as a plain figure in p/s.

# compound, readoutUnits, recordedNumber
rows = [
    ("CCCCCCCC/C=C\\COC(=O)CCCCCN(CCO)CCCCCC(=O)OC/C=C\\CCCCCCCC", "p/s", "2.03E+05"),
    ("CCCCCCCCCOC(=O)CCCCCCCN(CCCCO)CCCCCCCC(=O)OC(CCCCCCCC)CCCCCCCC", "p/s", "2.59E+07"),
    ("CCCCCCCCCN(CCCO)CCCCCCCC(=O)OC(CCCCCCCC)CCCCCCCC", "p/s", "3.65E+06"),
    ("CCCCCCCCCOC(=O)CCCCCCCN(CCCCCCCC(=O)OC(CCCCCCCC)CCCCCCCC)C[C@H](C)O", "p/s", "8.02E+04"),
    ("CCCCCCCCCN(CCO)CCCCCCCC(=O)OC(CCCCCCCC)CCCCCCCC", "p/s", "3.58E+06"),
    ("CCCCCCCCCOC(=O)CCCN(CCO)CCCCCCCC(=O)OC(CCCCCCCC)CCCCCCCC", "p/s", "3.90E+06"),
    ("CCCCCCCCCOC(=O)CCCCCCCN(CCO)CCCCCCCC(=O)OCCCCCCCCC", "p/s", "2.72E+05"),
]

Now for a further compound.
Q: So what's the measured Total flux, 0.001 mpk Dose for this one? CCCCCCCCCOC(=O)CCCCCCCN(CCO)CCCCCCCC(=O)OC(CCCCCC)CCCCCCCC (centres unmarked)
Result: 7.37E+05
